- Tested on: ATP;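 further: ATP exposure 15 min at 22 °C before imaging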
- protocol: switch fluorescence ratio, 500 uM ATP over buffer (Cy3 cluster intensity, sum of 5 cycles each) (fold (ratio)); higher = stronger signal-on switching upon ATP binding; sequences stand for … in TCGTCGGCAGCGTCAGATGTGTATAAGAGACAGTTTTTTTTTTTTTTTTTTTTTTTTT…TC
- condition-summary: aptamer strand: ATP DNA aptamer (quencher-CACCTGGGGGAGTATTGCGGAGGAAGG + anchor), 100 nM annealed; ATP concentration: 500 uM
metric: switch fluorescence ratio
Answer as a number with no unit attached.

Below: 10 sequences and their reported switch fluorescence ratio.
residue_codes=GGGGGAGGCT test_system=ATP metric="switch fluorescence ratio" measurement=0.987
residue_codes=TACTAACATT test_system=ATP metric="switch fluorescence ratio" measurement=1.14
residue_codes=TTTAATTAT test_system=ATP metric="switch fluorescence ratio" measurement=0.99
residue_codes=ATGTAATCAT test_system=ATP metric="switch fluorescence ratio" measurement=1.01
residue_codes=ATACTGTTGA test_system=ATP metric="switch fluorescence ratio" measurement=0.973
residue_codes=TCATAGTTGG test_system=ATP metric="switch fluorescence ratio" measurement=0.979
residue_codes=CACGTGCCAG test_system=ATP metric="switch fluorescence ratio" measurement=0.985
residue_codes=GTTATAAGTG test_system=ATP metric="switch fluorescence ratio" measurement=0.992
residue_codes=GGGCAACGGG test_system=ATP metric="switch fluorescence ratio" measurement=1.2
residue_codes=GGGTATGTGT test_system=ATP metric="switch fluorescence ratio" measurement=0.986

// moving on: another record for switch fluorescence ratio
Tell me the measured switch fluorescence ratio of `AATCGGGAA` , please.
0.987
